These measurements were taken from patent US20250333497A1.

# SYSTEM_TESTED: T1, Full length PLXDC1 (PLXDC1-Full) (Homo sapiens (Human), UniProt Q8IUK5 19-500)
# T1 construct: also called full PLXDC1 protein
# T1 sequence: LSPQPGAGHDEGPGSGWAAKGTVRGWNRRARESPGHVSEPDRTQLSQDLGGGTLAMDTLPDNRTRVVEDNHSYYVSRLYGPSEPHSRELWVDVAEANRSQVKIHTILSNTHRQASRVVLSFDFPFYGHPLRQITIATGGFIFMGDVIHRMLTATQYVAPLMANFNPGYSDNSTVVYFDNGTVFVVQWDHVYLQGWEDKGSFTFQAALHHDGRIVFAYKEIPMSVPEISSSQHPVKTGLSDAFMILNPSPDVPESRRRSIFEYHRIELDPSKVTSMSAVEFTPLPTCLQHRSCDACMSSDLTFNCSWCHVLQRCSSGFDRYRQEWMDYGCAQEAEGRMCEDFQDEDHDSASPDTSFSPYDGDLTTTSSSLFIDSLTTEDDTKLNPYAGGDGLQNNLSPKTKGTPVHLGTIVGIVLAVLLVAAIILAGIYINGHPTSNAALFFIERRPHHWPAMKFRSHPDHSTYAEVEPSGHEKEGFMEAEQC
# ASSAY_SUMMARY: staining of transfected cells (FIG. 3-4)

# BINDER, binding result
rows = [
    ("A007 (antibody, V domains shown, VH/VL only; also called 8-A7) VH: EVQLLESGGGLVQPGGSLRLSCAASGFTFRNYAMSWVRQAPGKGLEWVSSISGGGINTYYADSVKGRFTISRDNSKNTLYLQMNSLRAEDTAVYYCARVRSYSGPGYFDYWGQGTLVTVSS VL: EIVMTQSPATLSVSPGDRATLSCRASRSVSSNLAWYQQKPGQAPRLLIYGASTRATGIPARFSGSGSGTEFTLTISSLQSEDFAVYYCQQYYNWPLTFGQGTKVEIK", "binds"),
    ("A002 (antibody, V domains shown, VH/VL only; also called 4-A8) VH: EVQLLESGGGLVQPGGSLRLSCAASGFTFKNYAMSWVRQAPGKGLEWVSAISASGGYTYYADSVKGRFTISRDNSKNTLYLQMNSLRAEDTAVYYCARGRWGAFDYWGQGTLVTVSS VL: QSVLTQPPSVSGAPGQRVTISCTGSSSNIGSGYDVHWYQQLPGTAPKLLIYGNRNRPSGVPDRFSGSKSGTSASLAITGLQAEDEADYYCQSYDSSLKTWVFGGGTKLTVL", "binds"),
    ("A006 (antibody, V domains shown, VH/VL only; also called 3-G7) VH: QVQLVQSGAEVKKPGSSVKVSCKASGGTFSTEYISWVRQAPGQGLEWMGRIIPVLGITNYAQKFQGRVTITADESTSTAYMELSSLRSEDTAVYYCARHLGPPYLVTYSHGFDVWGQGTLVTVSS VL: EIVMTQSPATLSVSPGERATLSCRASQSLGTNLAWYQQKPGQAPRLLIYGASTRATGIPARFSGSGSGTEFTLTISSLQSEDFAVYYCQQYYEAPPTFGQGTKVEIK", "binds"),
]
